Tested on: Vero
Test: Cytotoxicity against African green monkey Vero cells after 48 hrs by MTT assay
Format: cell-based
Details: chlorocebus sabaeus
OUTCOME_MEASURE: log10 CC50 (log10 of the value in µM)
Log scale reminder: CC50 in µM, then log10 taken.

# log10 CC50 of `O=C(NC(=O)c1ccc([N+](=O)[O-])o1)c1ccccc1` = 0.48

# log10 CC50 of `CC(C)(NC(=O)c1ccc([N+](=O)[O-])o1)c1ccc(COc2ccccc2Cl)cc1` = 1.48

# log10 CC50 of `CC(C)(NC(=O)c1ccc([N+](=O)[O-])o1)c1ccc(COc2ccc(C(F)(F)F)cc2)cc1` = 0.85

# log10 CC50 of `O=C(NCCc1ccccc1)c1ccc([N+](=O)[O-])o1` = 1.08

# log10 CC50 of `O=C(Nc1ccc(Cl)cc1)c1ccc([N+](=O)[O-])o1` = 0.18

# log10 CC50 of `CC(C)(NC(=O)c1ccc([N+](=O)[O-])o1)c1ccc(Oc2ccc(Cl)cc2)cc1` = 1.83

# log10 CC50 of `CN(C)c1ccc(C(C)(C)NC(=O)c2ccc([N+](=O)[O-])o2)cc1` = 1.90

# log10 CC50 of `CC(C)(NC(=O)c1ccc([N+](=O)[O-])o1)c1ccc(F)cc1` = 1.62

# log10 CC50 of `O=C(NCCCc1ccc(Cl)cc1)c1ccc([N+](=O)[O-])o1` = 1.28

# log10 CC50 of `CC(C)(NC(=O)c1ccc([N+](=O)[O-])o1)c1ccc(COc2ccccc2C(F)(F)F)cc1` = 1.15

# log10 CC50 of `O=C(NCCCc1ccccc1)c1ccc([N+](=O)[O-])o1` = 1.04

# log10 CC50 of `O=C(NCc1ccc(-c2ccc(Cl)cc2)cc1)c1ccc([N+](=O)[O-])o1` = 0.64

# log10 CC50 of `CC(C)(NC(=O)c1ccc([N+](=O)[O-])o1)c1ccc(OC(F)(F)F)cc1` = 1.85

# log10 CC50 of O=C(NC(c1ccccc1)C1CC1)c1ccc([N+](=O)[O-])o1 (stereo unspecified) = 1.34

# log10 CC50 of `O=C(Nc1cc2ccccc2o1)c1ccc([N+](=O)[O-])o1` = 1.60

# log10 CC50 of CC(C)(C)C(NC(=O)c1ccc([N+](=O)[O-])o1)c1ccccc1 (stereo unspecified) = 1.00

# log10 CC50 of `O=C(NCc1ccc(CN2CCOCC2)cc1)c1ccc([N+](=O)[O-])o1` = 1.26

# log10 CC50 of `CC(C)(NC(=O)c1ccc([N+](=O)[O-])o1)c1ccc(COc2ccccc2OC(F)(F)F)cc1` = 1.11

* * *

Assign solubility kinetic to each entry below.
Experiment: Kinetic solubility of the compound in pH 7.4 phosphate buffered saline
Type: physicochemical
Details: phosphate buffered saline, read-out: Kinetic_solubility

# solubility kinetic of `COc1ccc(OCc2ccc(C(C)(C)NC(=O)c3ccc([N+](=O)[O-])o3)cc2)cc1` = < 0.06 µM

# solubility kinetic of `O=C(NCc1ccccc1)c1ccc([N+](=O)[O-])o1` = > 500 µM

* * *

Assay: Ratio of drug level in CD-1 mouse lungs to plasma at 25 mg/kg, po administered as single dose measured after 5 hrs by LC-MS/MS analysis
Format: ADME, organism-based
Settings: lung/plasma
OUTCOME_MEASURE: Kp at 5 h

# Kp at 5 h of `COc1ccccc1OCc1ccc(C(C)(C)NC(=O)c2ccc([N+](=O)[O-])o2)cc1` = 0.04 to 0.09

* * *

Assay: AUC (0 to 5 hrs) in CD-1 mouse at 25 mg/kg, po administered as single dose by LC-MS/MS analysis
Assay type: ADME, organism-based
Design: dose 25 mg/kg, route oral
Settings: in vivo
Label Y when AUC >= 200 ng·h/mL; otherwise N.

Task: # bool: AUC of `COc1ccccc1OCc1ccc(C(C)(C)NC(=O)c2ccc([N+](=O)[O-])o2)cc1` >= 200 ng·h/mL
Output: Y

Task: # bool: AUC of `COc1ccc(OCc2ccc(C(C)(C)NC(=O)c3ccc([N+](=O)[O-])o3)cc2)cc1` >= 200 ng·h/mL
Output: N

Task: # bool: AUC of `O=C(NCc1ccccc1)c1ccc([N+](=O)[O-])o1` >= 200 ng·h/mL
Output: Y

Task: # bool: AUC of `CC(C)(NC(=O)c1ccc([N+](=O)[O-])o1)c1ccc(COc2ccc(Cl)cc2)cc1` >= 200 ng·h/mL
Output: N

Task: # bool: AUC of `CC(C)(NC(=O)c1ccc([N+](=O)[O-])o1)c1ccccc1` >= 200 ng·h/mL
Output: Y

* * *

Test: Intrinsic clearance in mouse liver microsomes assessed per mg protein
Assay type: ADME, Microsome
Assign log10 Intrinsic clearance to each entry below.
Log scale reminder: Intrinsic clearance in µL/min, then log10 taken.

# log10 Intrinsic clearance of `O=C(NCc1ccccc1)c1ccc([N+](=O)[O-])o1` = 1.39

# log10 Intrinsic clearance of `O=C(Nc1cc2ccccc2s1)c1ccc([N+](=O)[O-])o1` = 2.57

# log10 Intrinsic clearance of `COc1ccc(OCc2ccc(C(C)(C)NC(=O)c3ccc([N+](=O)[O-])o3)cc2)cc1` = 1.19

# log10 Intrinsic clearance of `O=C(Nc1ccc2ccccc2c1)c1ccc([N+](=O)[O-])o1` = 2.51

# log10 Intrinsic clearance of `CC(C)(NC(=O)c1ccc([N+](=O)[O-])o1)c1ccccc1` = 0.97

# log10 Intrinsic clearance of `COc1ccccc1OCc1ccc(C(C)(C)NC(=O)c2ccc([N+](=O)[O-])o2)cc1` = 1.78

* * *

System: Vero
Assay: Cytotoxicity against African green monkey Vero cells after 48 hrs by MTT assay
Assay type: cell-based
Conditions: chlorocebus sabaeus
OUTCOME_MEASURE: log10 CC50 (log10 of the value in µM)
Log scale reminder: CC50 in µM, then log10 taken.

# log10 CC50 of `O=C(NC1(c2ccccc2)CC1)c1ccc([N+](=O)[O-])o1` = 1.66

# log10 CC50 of CC(NC(=O)c1ccc([N+](=O)[O-])o1)c1ccccc1 (centres undefined) = 1.38

# log10 CC50 of `O=C(Nc1ccccc1)c1ccc([N+](=O)[O-])o1` = 0.83

# log10 CC50 of `O=C(NCc1ccccc1Cl)c1ccc([N+](=O)[O-])o1` = 1.04

# log10 CC50 of `CC(C)(NC(=O)c1ccc([N+](=O)[O-])o1)c1ccc(C#N)cc1` = 1.92

# log10 CC50 of `CC(C)(NC(=O)c1ccc([N+](=O)[O-])o1)c1ccc(COc2ccc(OC(F)(F)F)cc2)cc1` = 0.83

# log10 CC50 of `O=C(NCCc1ccc(Cl)cc1)c1ccc([N+](=O)[O-])o1` = 0.73

# log10 CC50 of `O=C(NCc1cccc(Cl)c1)c1ccc([N+](=O)[O-])o1` = 0.74

# log10 CC50 of CC(C)C(NC(=O)c1ccc([N+](=O)[O-])o1)c1ccccc1 (centres undefined) = 1.34

# log10 CC50 of `O=C(NCc1ccccc1)c1ccc([N+](=O)[O-])o1` = 1.11

# log10 CC50 of `O=C(Nc1cc2ccccc2s1)c1ccc([N+](=O)[O-])o1` = 1.58

# log10 CC50 of `CC(C)(NC(=O)c1ccc([N+](=O)[O-])o1)c1ccc(CN2CCOCC2)cc1` = 2.11

* * *

Assay: Kinetic solubility of the compound in pH 7.4 phosphate buffered saline
Type: physicochemical
Settings: buffer
Assign Kinetic_solubility to each entry below.
Reply numerically in µM, unit not repeated.

# Kinetic_solubility of `CC(C)(NC(=O)c1ccc([N+](=O)[O-])o1)c1ccccc1` = 388

# Kinetic_solubility of `O=C(Nc1ccc2ccccc2c1)c1ccc([N+](=O)[O-])o1` = 1.5

# Kinetic_solubility of `COc1ccccc1OCc1ccc(C(C)(C)NC(=O)c2ccc([N+](=O)[O-])o2)cc1` = 0.182

# Kinetic_solubility of `O=C(Nc1cc2ccccc2s1)c1ccc([N+](=O)[O-])o1` = 5.61

* * *

Experiment: Cmax in CD-1 mouse at 25 mg/kg, po administered as single dose by LC-MS/MS analysis
Assay type: ADME, organism-based
Set-up: dose 25 mg/kg, route oral
Details: CD-1, mouse, in vivo, read-out: Cmax
Assign Cmax to each entry below.
Reply numerically in nM, unit not repeated.

# Cmax of `CC(C)(NC(=O)c1ccc([N+](=O)[O-])o1)c1ccc(COc2ccc(Cl)cc2)cc1` = 22

# Cmax of `CC(C)(NC(=O)c1ccc([N+](=O)[O-])o1)c1ccccc1` = 1620

# Cmax of `COc1ccccc1OCc1ccc(C(C)(C)NC(=O)c2ccc([N+](=O)[O-])o2)cc1` = 210

# Cmax of `O=C(NCc1ccccc1)c1ccc([N+](=O)[O-])o1` = 1160
